- target_system: T1, recombinant Motavizumab human IgE (rMota-hIgE) (human, UniProt P01854 1-428)
- T1 construct: also called Recombinant IgE (argenx)
- T1 sequence (P01854 other isoform, or with tags, fused parts or gaps limits assumed, form in doubt): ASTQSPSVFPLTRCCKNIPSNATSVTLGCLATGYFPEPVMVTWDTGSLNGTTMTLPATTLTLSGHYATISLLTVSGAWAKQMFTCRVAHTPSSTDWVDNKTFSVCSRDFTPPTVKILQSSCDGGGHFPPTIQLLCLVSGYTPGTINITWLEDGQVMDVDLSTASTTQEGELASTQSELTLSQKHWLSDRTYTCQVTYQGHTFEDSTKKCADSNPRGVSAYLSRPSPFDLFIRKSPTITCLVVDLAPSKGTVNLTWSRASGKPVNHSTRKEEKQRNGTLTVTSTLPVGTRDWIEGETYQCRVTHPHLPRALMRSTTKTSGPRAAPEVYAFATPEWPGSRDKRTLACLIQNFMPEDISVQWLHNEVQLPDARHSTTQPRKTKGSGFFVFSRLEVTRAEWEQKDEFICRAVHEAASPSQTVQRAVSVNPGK
- test_protocol: hIgE binding ELISA
metric_name: Ratio EC50 pH 5.5/7.4
Answer using only a numeral; do not append any unit.

Could you tell me which Ratio EC50 pH 5.5/7.4 is on file for OmaVH15G55H - VL3S31H (antibody, V domains shown) VH: EVQLVESGGGLVQPGGSLRLSCAVSGYSITSGHRWEWIRQAPGKGLEWVASIHYDHSTNYNPSVKGRITISRDDSKNTFYLQMNSLRAEDTAVYYCARATHYFGHWHFAVWGQGTLVTVSS VL: DIQLTQSPSSLSASVGDRVTITCRASQSVDYDGDHYMNWYQQKPGKAPKLLIEWGSYLRSGVPSRFSGSGSGTDFTLTISSLQPEDFATYYCQQNAEDPYTFGQGTKVEIK ?
1.5
